target: T1, S4h
T1 chain: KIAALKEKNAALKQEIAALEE
procedure-details: ITC; MicroCal PEAQ-ITC; syringe peptide (1 mM P5f, P13f; 5.6 mM S1h or 5.4 mM S3h) injected into the cell with the complementary peptide (100 µM P6f or P14f; 560 µM S2h or 540 µM S4h); 50 mM Tris pH 7.5, 150 mM NaCl, 1 mM TCEP; concentrations of the S peptides not stated
test-conditions: both partners purified
parameter: pKd
Numbers only, as −log10 of the molar value.

Need pKd of EIAALEEENAALEQKIAALKE [S3h] , thanks.
3.47
